- Tested on: OVCAR-4
- Procedure summary: NCI tumour cell line growth inhibition, 48 h
The source made the active and inactive calls. No stated cut-off is given here; in the data, active = GI50 up to about 1.1 µM and inactive = higher.
Measured attribute: GI50

# example entries with known answers
- Compound: "O/N=C/C1C(OCc2ccccc2)C(OCc2ccccc2)C(OCc2ccccc2)CN1Cc1ccccc1 (configuration not stated)"
  GI50: "6.41 µM (inactive)"
- Compound: "C[C@@H]1[C@@H](c2ccccc2)O[B-](c2ccccc2)(c2ccccc2)N1C"
  GI50: "72.1 µM (inactive)"

Short answer please: GI50, OVCAR-4, entry CC(=O)OCC1OC(O[C@@H]2C[C@H]3C(C)(C)[C@H](OC(C)=O)CC[C@]3(C)[C@H]3CC[C@]4(C)C(=CC[C@H]4[C@@H](C)C[C@@H](O)[C@H](O)C(C)(C)O)[C@@]32C)C(O)C(O)C1O (some centres not stated)
16 µM (inactive)

Request: "CCOC(=O)c1c(Br)c(-c2ccc(Br)cc2)c(Br)n1C"
19.3 µM (inactive)

Request: O=C1c2ccccc2/C(=N\c2ccc3ccccc3c2)C1(C1=C(c2ccccc2)/C(=N/c2ccc3ccccc3c2)c2ccccc21)c1ccccc1 (configuration not stated)
5.37 µM (inactive)

Request: "Cc1ccc(-c2cc(=O)c3cc(C)c(C)c(C(=O)O)c3o2)cc1N"
> 100 µM (inactive)

Request: "O=C(CO[N+](=O)[O-])OCC(=O)c1ccccc1"
> 100 µM (inactive)

* * *

- Tested on: 786-0
- Procedure summary: NCI tumour cell line growth inhibition, 48 h
The source made the active and inactive calls. Rule as the data show it: active = GI50 up to about 1.1 µM and inactive = higher.
Measured attribute: GI50

# example entries with known answers
- Compound: "CC(=O)O[C@H]1CC[C@@]2(C)[C@@H](CC[C@@H]3[C@@H]2CC(=O)[C@@]2(C)[C@H]3C[C@@H]3CC(C)=CC(=O)[C@@H]32)C1"
  Measured attribute: "GI50"
  Experimental value: "39.5 µM (inactive)"
- Compound: "COc1ccc2c(C=O)c3n(c(=O)c2c1OC)CCc1cc2c(cc1-3)OCO2"
  Measured attribute: "GI50"
  Experimental value: "90.2 µM (inactive)"
- Compound: "Oc1cc(-c2cccc3ccccc23)nc2ncccc12"
  Measured attribute: "GI50"
  Experimental value: "0.0321 µM (active)"

Switching to the query record.
Requested field: GI50. Item: O=c1[nH]c(=O)n(C2CC(O)C(CO)O2)cc1OCCCc1ccccc1 (centres undefined)
> 100 µM (inactive)

* * *

- System: OVCAR-4
- Procedure summary: NCI tumour cell line growth inhibition, 48 h
The source made the active and inactive calls. Cut-off read from the data, not from the text of the source: active = GI50 up to about 1.1 µM and inactive = higher.
Measured attribute: GI50

- Record smiles: "CNc1nc2n(CCO)c(-c3ccccc3)c(-c3ccccc3)nc-2c(=O)n1"
  GI50: "> 50 µM (inactive)"
- Record smiles: "CCOC(=O)/C=C(\\N=P(c1ccccc1)(c1ccccc1)c1ccccc1)C(F)(F)C(F)(F)C(F)(F)C(F)(F)C(F)(F)F"
  GI50: "> 100 µM (inactive)"
- Record smiles: "CCCNC1=Nc2ccccc2N(Cc2ccccc2)CC1"
  GI50: "35 µM (inactive)"

Requested field: GI50. Item: "S=c1[nH]nc(COc2ccc3c(c2)CCCC3)n1/N=C/c1ccc(Cl)cc1"
18.1 µM (inactive)

Request: "CN(C(=O)OC(C)(C)C)[C@H]1CCCC[C@H]1N1CCCC1"
> 100 µM (inactive)

Request: "Clc1ccc(-c2nn3c(COc4ccc(OCc5nnc6sc(-c7ccc(Cl)cc7)nn56)c(Cl)c4)nnc3s2)cc1"
25.5 µM (inactive)

Request: "COc1ccc(C2=C(N)c3ncccc3C2=O)cc1"
> 100 µM (inactive)

Origin of values: ChEMBL document CHEMBL1201862
